System: P388
method_description: Inhibitory activity against Murine […]
Assay type: functional, cell-based
condition_details: Mus musculus
pIC50: −log10 of the molar value.
readout_kind: pIC50

Below: 2 molecules and their reported pIC50.
# entry_smiles, readout_kind, recorded_value
records = [
    ("Cc1ccc2nc3c(C(=O)NCCCN(C)CCCNC(=O)c4cccc5cc6cc(C)ccc6nc45)cccc3cc2c1", "pIC50", 6.57),
    ("CN(CCCNC(=O)c1cccc2cc3ccc(C(F)(F)F)cc3nc12)CCCNC(=O)c1cccc2cc3ccc(C(F)(F)F)cc3nc12", "pIC50", 5.02),
]

a: CC(C)c1ccc2nc3c(C(=O)NCCCN(C)CCCNC(=O)c4cccc5cc6cc(C(C)C)ccc6nc45)cccc3cc2c1
b: CN(CCCNC(=O)c1cccc2cc3cc(F)ccc3nc12)CCCNC(=O)c1cccc2cc3cc(F)ccc3nc12
# min-compare on pIC50 between a and b Refer to your chosen entry by its label in the reply.
a
